experiment: Cmax in Sprague-Dawley rat at 20 mg/kg, po measured upto 24 hrs; assay type: ADME, organism-based; design: time < 24 hrs, dose 20 mg/kg, route po; conditions: in vivo

[
  {
    "molecule.smiles": "O=C(N/N=C/c1ccc([N+](=O)[O-])s1)c1ccc(OCCCCCCN2CCCCC2)cc1",
    "Cmax / ng/mL": 351
  },
  {
    "molecule.smiles": "O=C(N/N=C/c1ccc([N+](=O)[O-])o1)c1ccc(OCCCCCCN2CCCCC2)cc1",
    "Cmax / ng/mL": 244
  }
]

----------
test: Half life in Sprague-Dawley rat at 20 mg/kg, po measured upto 24 hrs; type: ADME, organism-based; conditions: in vivo
observation.type: half-life (min)

[
  {
    "molecule.smiles": "O=C(N/N=C/c1ccc([N+](=O)[O-])o1)c1ccc(OCCCCCCN2CCCCC2)cc1",
    "value.measured": 78.6
  },
  {
    "molecule.smiles": "O=C(N/N=C/c1ccc([N+](=O)[O-])s1)c1ccc(OCCCCCCN2CCCCC2)cc1",
    "value.measured": 73.8
  }
]

----------
system: Mus musculus; test: Anti-fibrotic activity in bleomycin-induced C57BL/6 mouse model of pulmonary fibrosis assessed as reduction in ratio of macrophage cells at 30 mg/kg, po administered once daily by flow cytometry analysis (reference value: 21.51%); type: functional; design: scale not given: the % may be the effect or the level left

[
  {
    "molecule": "O=C(N/N=C/c1ccc([N+](=O)[O-])s1)c1ccc(OCCCCCCN2CCCCC2)cc1",
    "unit.string": "%",
    "Activity": 4.79
  },
  {
    "molecule": "O=C(N/N=C/c1ccc([N+](=O)[O-])o1)c1ccc(O)cc1 [NIFUROXAZIDE]",
    "unit.string": "%",
    "Activity": 9.12
  },
  {
    "molecule": "COC(=O)c1ccc2c(c1)NC(=O)/C2=C(\\Nc1ccc(N(C)C(=O)CN2CCN(C)CC2)cc1)c1ccccc1",
    "unit.string": "%",
    "Activity": 9.35
  },
  {
    "molecule": "O=C(N/N=C/c1ccc([N+](=O)[O-])o1)c1ccc(OCCCCCCN2CCCCC2)cc1",
    "unit.string": "%",
    "Activity": 13.6
  }
]

----------
Reported log10 solubility at 1 h values are given for each entry in this list.
experiment: Aqueous solubility of compound incubated for 1 hr by HPLC analysis; format: physicochemical
observation.type: log10 solubility at 1 h (log10 of the value in µg/mL)

[
  {
    "molecule": "O=C(N/N=C/c1ccc([N+](=O)[O-])o1)c1ccc(OCCCCCN2CCCCC2)cc1",
    "observation.type": "log10 solubility at 1 h",
    "value.measured": 2.73
  },
  {
    "molecule": "CN1CCN(CCCCOc2ccc(C(=O)N/N=C/c3ccc([N+](=O)[O-])o3)cc2)CC1",
    "observation.type": "log10 solubility at 1 h",
    "value.measured": 2.15
  },
  {
    "molecule": "COCCCOc1ccc(C(=O)N/N=C/c2ccc([N+](=O)[O-])o2)cc1",
    "observation.type": "log10 solubility at 1 h",
    "value.measured": 2.67
  },
  {
    "molecule": "O=C(N/N=C/c1ccc([N+](=O)[O-])o1)c1ccc(OCCCN2CCOCC2)cc1",
    "observation.type": "log10 solubility at 1 h",
    "value.measured": 2.04
  },
  {
    "molecule": "O=C(N/N=C/c1ccc([N+](=O)[O-])s1)c1ccc(OCCCCCCN2CCCCC2)cc1",
    "observation.type": "log10 solubility at 1 h",
    "value.measured": 2.59
  },
  {
    "molecule": "CN1CCN(CCCCCCOc2ccc(C(=O)N/N=C/c3ccc([N+](=O)[O-])o3)cc2)CC1",
    "observation.type": "log10 solubility at 1 h",
    "value.measured": 2.11
  },
  {
    "molecule": "CN1CCN(CCCCCCOc2ccc(C(=O)N/N=C/c3ccc([N+](=O)[O-])s3)cc2)CC1",
    "observation.type": "log10 solubility at 1 h",
    "value.measured": 2.70
  },
  {
    "molecule": "O=C(N/N=C/c1ccc([N+](=O)[O-])o1)c1ccc(OCCCCN2CCCCC2)cc1",
    "observation.type": "log10 solubility at 1 h",
    "value.measured": 3.16
  },
  {
    "molecule": "O=C(N/N=C/c1ccc([N+](=O)[O-])o1)c1ccc(OCCCCCCN2CCCCC2)cc1",
    "observation.type": "log10 solubility at 1 h",
    "value.measured": 2.72
  },
  {
    "molecule": "CN1CCN(CCCOc2ccc(C(=O)N/N=C/c3ccc([N+](=O)[O-])o3)cc2)CC1",
    "observation.type": "log10 solubility at 1 h",
    "value.measured": 1.90
  },
  {
    "molecule": "CN1CCN(CCCCOc2ccc(C(=O)N/N=C/c3ccc([N+](=O)[O-])s3)cc2)CC1",
    "observation.type": "log10 solubility at 1 h",
    "value.measured": 1.48
  },
  {
    "molecule": "O=C(N/N=C/c1ccc([N+](=O)[O-])o1)c1ccc(OCCCCN2CCOCC2)cc1",
    "observation.type": "log10 solubility at 1 h",
    "value.measured": 2.57
  },
  {
    "molecule": "CN1CCN(CCCCCOc2ccc(C(=O)N/N=C/c3ccc([N+](=O)[O-])o3)cc2)CC1",
    "observation.type": "log10 solubility at 1 h",
    "value.measured": 2.15
  },
  {
    "molecule": "O=C(N/N=C/c1ccc([N+](=O)[O-])o1)c1ccc(O)cc1 [NIFUROXAZIDE]",
    "observation.type": "log10 solubility at 1 h",
    "value.measured": 2.04
  },
  {
    "molecule": "CN1CCN(CCCCCOc2ccc(C(=O)N/N=C/c3ccc([N+](=O)[O-])s3)cc2)CC1",
    "observation.type": "log10 solubility at 1 h",
    "value.measured": 2.15
  },
  {
    "molecule": "O=C(N/N=C/c1ccc([N+](=O)[O-])o1)c1ccc(OCCN2CCCCC2)cc1",
    "observation.type": "log10 solubility at 1 h",
    "value.measured": 2.04
  },
  {
    "molecule": "O=C(N/N=C/c1ccc([N+](=O)[O-])s1)c1ccc(OCCCCCN2CCCCC2)cc1",
    "observation.type": "log10 solubility at 1 h",
    "value.measured": 2.04
  },
  {
    "molecule": "O=C(N/N=C/c1ccc([N+](=O)[O-])o1)c1ccc(OCCCN2CCCCC2)cc1",
    "observation.type": "log10 solubility at 1 h",
    "value.measured": 3.05
  }
]
